- Test system: P-gp (human MDR1)
- protocol.details: in vitro
- test.settings: dog, MDCK-MDR1, Papp, B-A Value

structure	Papp B→A at 1 h, 5 μM (×10⁻⁶ cm/s)
Cn1c(Nc2ccc(I)cc2F)c(C(=O)NOCCO)c2cccnc21	42.3
Cn1c(C(=O)NOCCO)c(Nc2ccc(I)cc2F)c2cnccc21	43.2

###

- protocol.details: Plasma LCMS compound levels, in vivo mouse model
- Set-up: species or system mice
- test.settings: male, C57BL/6J, mouse, plasma; topical 0.5%; 2 h after final application

structure	concentration at 2 h [ng/mL]
Cn1c(Nc2ccc(I)cc2F)c(C(=O)NOCCO)c2cccnc21	102

###

- protocol.details: S9 stability assay, human liver S9 fraction
- Type: in vitro ADME
- test.settings: pH 7.4; Table 1; human liver S9 fraction; read-out: Liver S9 t1/2

structure	unit.of.measure	half-life at 1 μM
Cn1cnc2c(F)c(Nc3ccc(Br)cc3F)c(C(=O)NOCCO)cc21	h	4.62
CC(=O)Nc1cccc(-n2c(=O)n(C3CC3)c(=O)c3c(Nc4ccc(I)cc4F)n(C)c(=O)c(C)c32)c1	h	6.7
O=C(NC[C@@H](O)CO)c1ccncc1Nc1ccc(I)cc1F	h	4.47
O=C(NOC[C@H](O)CO)c1ccc(F)c(F)c1Nc1ccc(I)cc1F	h	5.67
O=C(NOC[C@H](O)CO)c1c(Nc2ccc(I)cc2F)sc2ncccc12	h	2.63
Cn1c(Nc2ccc(I)cc2F)c(C(=O)NOCC2CC2)c2cccnc21	h	0.133
O=C(NOCC1CC1)c1ccc(F)c(F)c1Nc1ccc(I)cc1Cl	h	0.55
Cn1c(Nc2ccc(I)cc2F)c(C(=O)NOCCO)c2cccnc21	h	0.267
O=C(NOCCO)c1ccc2cncn2c1Nc1ccc(I)cc1F	h	0.833
Cn1c(C(=O)NOCCO)c(Nc2ccc(I)cc2F)c2cnccc21	h	1.1
Cn1cnc2c(F)c(Nc3ccc(Br)cc3Cl)c(C(=O)NOCCO)cc21	h	2.3

###

- protocol.details: S9 stability assay, human liver S9 fraction
- Assay type: in vitro ADME
- test.settings: human, liver S9 fraction, pH 7.4; Table 2; 1 μM, 2 mg/mL S9 protein, NADPH; read-out: Assay 4: human liver S9 half-life

compound	half-life at 1 μM
COc1cnc2c(c1)c(C(=O)NOCCO)c(Nc1ccc(I)cc1F)n2C [Example 8]	0.567 h
Cn1c(Nc2ccc(I)cc2F)c(C(=O)NC[C@@H](O)CO)c2cccnc21 [Example 12]	1.75 h
Cn1c(Nc2ccc(I)cc2F)c(C(=O)NOC[C@H](O)CO)c2cccnc21 [Example 6]	1.5 h
Cn1c(Nc2ccc(I)cc2F)c(C(=O)NC[C@H](O)CO)c2cccnc21 [Example 10]	1.6 h
Cn1c(Nc2ccc(I)cc2F)c(C(N)=O)c2cccnc21 [Example 13]	0.383 h
Cn1c(Nc2ccc(I)cc2F)c(C(=O)NO)c2cccnc21 [Example 4]	0.35 h

###

# Papp A→B at 1 h, 5 μM annotations
- System: P-gp (human MDR1)
- protocol.details: in vitro
- test.settings: dog, MDCK-MDR1, Papp, A-B Value
outcome.measure: Papp A→B at 1 h, 5 μM (×10⁻⁶ cm/s)

structure	unit.of.measure	numeric.value
Cn1c(Nc2ccc(I)cc2F)c(C(=O)NOCCO)c2cccnc21	×10⁻⁶ cm/s	50.5
Cn1c(C(=O)NOCCO)c(Nc2ccc(I)cc2F)c2cnccc21	×10⁻⁶ cm/s	12.7

###

- protocol.details: Compound levels in neck/back skin (LCMS), in vivo mouse model
- Design: species or system mice
- test.settings: male, C57BL/6J, mouse, neck/back skin; topical 0.1%; 2 h after final application

structure	concentration at 2 h
Cn1c(Nc2ccc(I)cc2F)c(C(=O)NOCCO)c2cccnc21	4880 ng/mL

###

- Tested on: P-gp (human MDR1)
- protocol.details: in vitro
- test.settings: dog, MDCK-MDR1
- Procedure: MDCK-MDR1 is a stable-transfected cell line originating from MDCK cells, with over-expression of human MDR1 gene. The cell line is widely used for the identification and characterization of P-gp substrates and inhibitors. […] Recovery was calculated based on the compound concentration at the end of the experiment, compared to that at the beginning of the experiment, adjusted for volumes. […]
outcome.measure: efflux ratio at 1 h, 5 μM

structure	outcome.measure	numeric.value
Cn1c(C(=O)NOCCO)c(Nc2ccc(I)cc2F)c2cnccc21	efflux ratio at 1 h, 5 μM	3.4
C[C@H]1O[C@@H](O[C@H]2[C@@H](O)C[C@H](O[C@H]3[C@@H](O)C[C@H](O[C@H]4CC[C@@]5(C)[C@H](CC[C@@H]6[C@@H]5C[C@@H](O)[C@]5(C)[C@@H](C7=CC(=O)OC7)CC[C@]65O)C4)O[C@@H]3C)O[C@@H]2C)C[C@H](O)[C@@H]1O	efflux ratio at 1 h, 5 μM	9.7
Cn1c(Nc2ccc(I)cc2F)c(C(=O)NOCCO)c2cccnc21	efflux ratio at 1 h, 5 μM	0.9

###

- protocol.details: S9 stability assay, human liver S9 fraction
- Assay type: in vitro ADME
- test.settings: human, liver S9 fraction, pH 7.4; Table 2; 1 μM, 2 mg/mL S9 protein, NADPH; read-out: Assay 5: human liver S9 instrinsic clearance value

structure	microsomal CLint at 1 μM [µL/min/mg]
Cn1c(Nc2ccc(I)cc2F)c(C(=O)NC[C@@H](O)CO)c2cccnc21	3.29
Cn1c(Nc2ccc(I)cc2F)c(C(=O)NO)c2cccnc21	16.5
Cn1c(Nc2ccc(I)cc2F)c(C(=O)NOC[C@H](O)CO)c2cccnc21	3.85
COc1cnc2c(c1)c(C(=O)NOCCO)c(Nc1ccc(I)cc1F)n2C	10.3
Cn1c(Nc2ccc(I)cc2F)c(C(=O)NC[C@H](O)CO)c2cccnc21	3.59
Cn1c(Nc2ccc(I)cc2F)c(C(N)=O)c2cccnc21	15.4

###

- subject.of.test: MEK1 (Homo sapiens, UniProt Q02750)
- Construct: N-terminal His-tagged recombinant human full length protein; His (N)
- Sequence (Q02750 whole entry): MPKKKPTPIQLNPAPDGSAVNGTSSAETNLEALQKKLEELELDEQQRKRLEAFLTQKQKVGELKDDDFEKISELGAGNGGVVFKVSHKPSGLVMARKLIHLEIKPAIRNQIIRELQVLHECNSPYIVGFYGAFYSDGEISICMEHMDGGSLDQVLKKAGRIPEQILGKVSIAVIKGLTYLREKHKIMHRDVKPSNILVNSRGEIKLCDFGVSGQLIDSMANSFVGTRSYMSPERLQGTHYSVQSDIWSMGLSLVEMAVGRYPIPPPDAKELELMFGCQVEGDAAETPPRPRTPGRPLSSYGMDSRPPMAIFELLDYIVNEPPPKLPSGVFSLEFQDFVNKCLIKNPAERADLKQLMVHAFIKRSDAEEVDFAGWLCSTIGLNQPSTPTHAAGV
- protocol.details: MEK inhibition assay, Biological Example 1a (33P-ATP, P81 filter-binding)
- test.settings: read-out: Assay 1: biochemical MEK IC50
pIC50: −log10 of the molar value.

structure	pIC50
Cn1c(Nc2ccc(I)cc2F)c(C(=O)NOC[C@H](O)CO)c2cccnc21	6.43
Cn1c(Nc2ccc(I)cc2F)c(C(=O)NO)c2cccnc21	6.17
Cn1c(Nc2ccc(I)cc2F)c(C(=O)NOCCO)c2cccnc21	6.61
C#Cc1ccc(Nc2c(C(=O)NOCCO)c3cccnc3n2C)c(F)c1	5.61
Cn1c(Nc2ccc(I)cc2F)c(C(=O)NOCC2CC2)c2cccnc21	6.59

###

- protocol.details: Compound levels in neck/back skin (LCMS), in vivo mouse model
- Parameters: species or system mice
- test.settings: male, C57BL/6J, mouse, neck/back skin; topical 0.5%; 2 h after final application
- Method: Week 4 (Experiment end): Skin and blood were collected right before the last morning dose (N=3), 1 hour (N=3 mice), and 2 hours (N=3 mice) after final application; Blood draw: Plasma compound levels (LCMS); Skin biopsy: formalin fixed for histology and p-ERK staining, flash frozen for Western analysis and skin compound levels (LCMS) […]
outcome.measure: concentration at 2 h

structure	outcome.measure	result
Cn1c(Nc2ccc(I)cc2F)c(C(=O)NOCCO)c2cccnc21	concentration at 2 h	81.6 µg/mL

###

- protocol.details: Plasma LCMS compound levels, in vivo mouse model
- Parameters: species or system mice
- test.settings: male, C57BL/6J, mouse, plasma; topical 1%; 2 h after final application
outcome.measure: concentration at 2 h (ng/mL)

compound	outcome.measure	numeric.value
Cn1c(Nc2ccc(I)cc2F)c(C(=O)NOCCO)c2cccnc21 [Example 2]	concentration at 2 h	262

###

Values of IC50 reported for hERG channel protein (Homo sapiens, UniProt Q12809) appear below.

structure	subject.of.test	readout.relation	IC50 (µM)
Cn1c(C(=O)NOCCO)c(Nc2ccc(I)cc2F)c2cnccc21	hERG channel protein (Homo sapiens, UniProt Q12809)	=	1.8
Cn1c(Nc2ccc(I)cc2F)c(C(=O)NOCCO)c2cccnc21	hERG channel protein (Homo sapiens, UniProt Q12809)	>	30
O=C(NOC[C@H](O)CO)c1c(Nc2ccc(I)cc2F)sc2ncccc12	hERG channel protein (Homo sapiens, UniProt Q12809)	=	7.3

###

- protocol.details: Compound levels in neck/back skin (LCMS), in vivo mouse model
- Set-up: species or system mice
- test.settings: male, C57BL/6J, mouse, neck/back skin; topical 0.1%; 1 h after final application
outcome.measure: concentration at 1 h (ng/mL)

compound	unit.of.measure	numeric.value
Cn1c(Nc2ccc(I)cc2F)c(C(=O)NOCCO)c2cccnc21 [Example 2]	ng/mL	14000

###

- protocol.details: Plasma LCMS compound levels, in vivo mouse model
- Design: species or system mice
- test.settings: male, C57BL/6J, mouse, plasma; topical 1% trametinib; 1 h
outcome.measure: concentration at 1 h (ng/mL)

molecule	unit.of.measure	numeric.value
CC(=O)Nc1cccc(-n2c(=O)n(C3CC3)c(=O)c3c(Nc4ccc(I)cc4F)n(C)c(=O)c(C)c32)c1 [trametinib, reference compound]	ng/mL	2810
